# Tested on: Human T-lymphoblastic leukemia cell line CEM
# protocol_text: MTT in vitro cytotoxicity assay, CEM
# Type: cell-based
# condition_details: 72 hours incubation
reported_endpoint: pIC50
Formally, pIC50 is defined as -log10 of the concentration c, with c in mol/L.

Input line: Determine from records and report pIC50 for CC(C)=CCNc1ncnc2nc[nH]c12 [IP, isopentenyladenine]
Output line: 3.77
